Value source: patent US9827228B2

Target: hMOR (Homo sapiens); further: test concentration or dose not given here
Construct: host or cells: CHO-K1
Sequence (P35372 whole entry): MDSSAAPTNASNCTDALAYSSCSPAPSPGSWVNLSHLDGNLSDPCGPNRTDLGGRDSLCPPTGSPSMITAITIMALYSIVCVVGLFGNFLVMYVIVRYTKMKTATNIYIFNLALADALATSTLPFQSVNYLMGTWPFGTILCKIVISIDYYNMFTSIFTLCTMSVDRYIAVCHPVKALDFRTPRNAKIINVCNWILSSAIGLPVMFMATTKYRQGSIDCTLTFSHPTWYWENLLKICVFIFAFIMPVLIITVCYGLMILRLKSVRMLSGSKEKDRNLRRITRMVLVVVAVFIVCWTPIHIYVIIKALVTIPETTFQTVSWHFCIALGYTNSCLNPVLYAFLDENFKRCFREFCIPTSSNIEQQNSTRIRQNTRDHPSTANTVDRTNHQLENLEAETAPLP
Assay: cell-based
Type: cell-based
Settings: AUC of [Ca2+]i fluorescence; combined with naloxone; CHO-K1/MOR/Gα15 cells
ASSAY_METRIC: AUC

// known answers, use as guide
CC(=O)c1ccc(Nc2nc(-c3sc(C)nc3C)cs2)cc1 [Compound 44]: − (−: <5000)
Cc1nc(C)c(-c2csc(Nc3ncccc3C)n2)s1 [Compound 79]: − (−: <5000)
CCc1ccc(C)nc1Nc1nc(-c2sc(C)nc2C)cs1 [Compound 82]: − (−: <5000)
Cc1nc(C)c(-c2csc(Nc3cccc(O)c3C)n2)s1 [Compound 89]: − (−: <5000)
Cc1nc(C)c(-c2csc(N)n2)s1 [Compound 130]: − (−: <5000)

The molecule listed as CCc1ccccc1Nc1nccs1 [Compound 131, N-(2-Ethylphenyl)-1,3-thiazol-2-amine] shows AUC equal to − (−: <5000)

The molecule listed as Cc1nc(C)c(-c2csc(Nc3cccc(Cl)c3C)n2)s1 [Compound 77] shows AUC equal to − (−: <5000)

The molecule listed as Cc1ccc(Nc2nc(-c3sc(C)nc3C)cs2)c(C)c1 [Compound 29] shows AUC equal to + (+: >5000)

The molecule listed as Cc1nc(C)c(-c2csc(Nc3ccc(C(=O)O)cc3C)n2)s1 [Compound 57] shows AUC equal to − (−: <5000)

The molecule listed as COc1cccc(C)c1Nc1nc(-c2sc(C)nc2C)cs1 [Compound 4] shows AUC equal to + (+: >5000)

The molecule listed as Cc1nc(C)c(-c2csc(Nc3cccc(F)c3C)n2)s1 [Compound 21] shows AUC equal to + (+: >5000)

The molecule listed as COC(=O)Cc1cnc(Nc2nc(-c3sc(C)nc3C)cs2)s1 [Compound 111] shows AUC equal to − (−: <5000)

The molecule listed as Cc1ccc(Nc2nc(-c3sc(-c4ccccc4)nc3C)cs2)c(C)c1 [Compound 93] shows AUC equal to − (−: <5000)

The molecule listed as CCc1ccccc1Nc1nc(-c2nccs2)cs1 [Compound 126] shows AUC equal to − (−: <5000)

The molecule listed as Cc1nc(C)c(-c2csc(Nc3c(C(C)C)cccc3C(C)C)n2)s1 [Compound 23] shows AUC equal to − (−: <5000)

The molecule listed as Cc1nc(C)c(-c2csc(Nc3ccc(Br)cc3C(F)(F)F)n2)s1 [Compound 43] shows AUC equal to + (+: >5000)

The molecule listed as CCc1ccccc1Nc1nc(-c2ccc3c(c2)OCCCO3)cs1 [Compound 122] shows AUC equal to − (−: <5000)

The molecule listed as Cc1nc(C)c(-c2csc(Nc3ccccc3N3CCCCC3)n2)s1 [Compound 68] shows AUC equal to − (−: <5000)

The molecule listed as CCc1ccccc1Nc1nc(-c2cccs2)cs1 [Compound 124] shows AUC equal to − (−: <5000)

The molecule listed as Cc1nc(C)c(-c2csc(Nc3c(C)cc(F)cc3C)n2)s1 [Compound 55] shows AUC equal to + (+: >5000)

The molecule listed as Cc1nc(C)c(-c2csc(Nc3c(C)cccc3C)n2)s1 [Compound 41] shows AUC equal to − (−: <5000)

The molecule listed as COc1ccc(Nc2nc(-c3sc(C)nc3C)cs2)c(C)c1 [Compound 35] shows AUC equal to + (+: >5000)

The molecule listed as Cc1cc(C)cc(Nc2nc(-c3sc(C)nc3C)cs2)c1 [Compound 39] shows AUC equal to − (−: <5000)
